# testDetails: viability loss in pontine glioma line – cell-based, SU-DIPG-XIII, MIPE5.0, CellTiter-Glo, qHTS, dose response (AID 1347064);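 for AC50: cells exposed to compound for 48 hours before the viability read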
# condition: CellTiter-Glo ATP luminescence
Records with an inconclusive call do not appear. Calls of active or inactive are those of the source. No cut-off is given here; in the data, nearly all actives have AC50 up to about 23 µM.
Outcome codes: active, inactive

>>> df
                                    compound  category
 0  COc1ccc2cc(-c3nc(-c4ccc(S(C)=O)cc4)[nH]c3-c3ccncc3)ccc2c1 (centres undefined)  inactive
 1  COc1cc(NC(=O)c2ccc(-c3ccc(Cl)cc3)o2)cc(OC)c1  inactive
 2  CC(C)(C(=O)NCC(F)(F)C(F)(F)F)C(=O)N[C@@H]1C(=O)Nc2ccccc2-c2ccccc21  inactive
 3  Cc1ncc(NC(=O)c2cccc(C(F)(F)F)c2)cc1-c1cnc(OC2CCOCC2)c(N2CCOCC2)c1    active
 4  CONC(=O)Nc1ccc(-c2sc3c(c2CN(C)Cc2ccccc2)c(=O)n(-c2ccccc2)c(=O)n3Cc2c(F)cccc2F)cc1  inactive
 5  CN(C)CCN(C)C(=O)c1ccc(NC(=O)Nc2ccc(-c3nc(N4CCOCC4)c4ccn(CC(F)(F)F)c4n3)cc2)cc1    active
 6     C[Se]CCC(N)C(=O)O (centres undefined)  inactive
 7  C=C1c2cccc(O)c2C(O)=C2C(=O)[C@@]3(O)C(O)=C(C(N)=O)C(=O)[C@@H](N(C)C)[C@@H]3[C@@H](O)[C@H]12  inactive
 8  CC(=O)O/N=C1/C(c2c(O)[nH]c3cc(Br)ccc23)=Nc2ccccc21    active
 9  Cc1cc(F)c(C(=O)Nc2cccc(-c3nncn3C(C)C)n2)cc1-n1cnc(C2CC2)c1    active
10         COc1cc2ncnc(Nc3cccc(Br)c3)c2cc1OC    active
11  O=C(NOCC(O)CO)c1cc(Br)c(F)c(F)c1Nc1ccc(I)cc1F (centres undefined)    active
12  Cc1nc(N)sc1-c1ccnc(Nc2ccc(N3CCOCC3)cc2)n1    active
13           Cc1ccc(Sc2ccccc2N2CCNCC2)c(C)c1    active
14       Cc1ccc2c(=O)c3cccc(CC(=O)O)c3oc2c1C  inactive
15  CNCCN(C)Cc1cn[nH]c1-c1ccc(OC2CC(OCCC3CCOCC3)C2)cc1 (centres undefined)  inactive
16  CC(=O)Nc1ccc([C@H](C)C(=O)Nc2ncc(C(C)C)s2)cc1    active
17  CC(C)n1nc(-c2ccc3oc(N)nc3c2)c2c(N)ncnc21    active
18           CC(=O)Nc1ccc(C(=O)NC(C)(C)C)cc1  inactive
19  Cc1nc(NC(=O)N2CCCC2C(N)=O)sc1-c1ccnc(C(C)(C)C(F)(F)F)c1 (centres undefined)    active
20  Nc1ccc(-c2ccc3ncc4ccc(=O)n(-c5cccc(C(F)(F)F)c5)c4c3c2)cn1    active
21  Cc1cc(Nc2cc(N3CCN(C)CC3)nc(Sc3ccc(NC(=O)C4CC4)cc3)n2)n[nH]1    active
22  O=C(O)CCCCC(CCSCc1ccccc1)SCc1ccccc1 (centres undefined)  inactive
23  CCN(CC)CCCCNc1ncc2cc(-c3cc(OC)cc(OC)c3)c(NC(=O)NC(C)(C)C)nc2n1    active
24  Cn1ncc(Cl)c1-c1cc(C(=O)N[C@H](CN)Cc2cccc(F)c2)sc1Cl    active
25  COc1c(OCCCN2CCOCC2)ccc2c3n(c(=NC(=O)c4cnc(N)nc4)nc12)CCN3    active
26  COc1ccc(Nc2cc(-c3cnc(N)nc3)nc(N3CCOCC3)n2)cn1    active
27  Cc1ccc(NC(=O)c2cccc(C(C)(C)C#N)c2)cc1Nc1ccc2ncn(C)c(=O)c2c1    active
28  CCOC(=O)C1=C[C@@H](OC(CC)CC)[C@H](NC(C)=O)[C@@H](N)C1  inactive
29  C[C@H](CCC(=O)O)[C@H]1CCC2C3C[C@H](O)[C@@H]4C[C@H](O)CC[C@]4(C)C3CC[C@@]21C (some centres undefined)  inactive
30  N#Cc1ccc(-c2c(-c3ncn[nH]3)sc(N3CCOCC3)c2C#N)c(F)c1    active
31  COC(=O)Nc1ccc(-c2nc(N3CCOCC3)c3cnn(C4CCN(C(=O)OC)CC4)c3n2)cc1    active
32  Cc1c(CN2CCN(C(=O)[C@H](C)O)CC2)sc2c(N3CCOCC3)nc(-c3cnc(N)nc3)nc12    active
33          CN1CC(=O)NC1=NC(=O)Nc1cccc(Cl)c1  inactive
34  CN(NC(=O)CC(=O)NN(C)C(=S)c1ccccc1)C(=S)c1ccccc1    active
35  CC(C)C(=O)OCC(=O)[C@@]12O[C@H](C3CCCCC3)O[C@@H]1C[C@H]1[C@@H]3CCC4=CC(=O)C=C[C@]4(C)[C@H]3[C@@H](O)C[C@@]12C    active
36     CCc1c(-c2ccccc2C)nc2c(C#N)c[nH]n2c1=O  inactive
37  CN(C)C(=O)[C@H](O)[C@H](Cc1ccccc1)NC(=O)c1cc2cc(Cl)ccc2[nH]1  inactive
38  Cn1cc(-c2ccc3nnc(Sc4ccc5ncccc5c4)n3n2)cn1  inactive
